List of phosphorylation enrichment values.
Target: Fyn (UniProt P06241)
Sequence (P06241 whole entry, looked up): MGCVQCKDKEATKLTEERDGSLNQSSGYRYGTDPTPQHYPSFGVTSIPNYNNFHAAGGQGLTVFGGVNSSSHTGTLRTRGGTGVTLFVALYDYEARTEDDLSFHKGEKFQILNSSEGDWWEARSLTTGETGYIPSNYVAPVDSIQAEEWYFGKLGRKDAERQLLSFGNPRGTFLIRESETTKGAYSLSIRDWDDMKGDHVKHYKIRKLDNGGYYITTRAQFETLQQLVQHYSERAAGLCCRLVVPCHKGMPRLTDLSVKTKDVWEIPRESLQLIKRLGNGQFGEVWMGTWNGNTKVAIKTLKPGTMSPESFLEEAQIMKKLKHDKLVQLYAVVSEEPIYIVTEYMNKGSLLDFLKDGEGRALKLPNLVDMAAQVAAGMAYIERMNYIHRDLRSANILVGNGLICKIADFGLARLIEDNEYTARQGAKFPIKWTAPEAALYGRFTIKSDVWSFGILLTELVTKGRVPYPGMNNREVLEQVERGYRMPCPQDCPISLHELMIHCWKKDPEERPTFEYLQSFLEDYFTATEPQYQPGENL
Assay: phosphorylation enrichment, bacterial display (enrichment ratio); higher = better substrate or ligand; peptides without Tyr show the background

CTNIHYNFMCN [TP53_Y234_T231N_YF]
0.456
MANFMYKAGPS [MAML2_Y515_YF]
0.383

Lookup: Tell me reported phosphorylation enrichment for LSVEIHDRREY [ITGB7_Y753_Y753H] , tested with Fyn (UniProt P06241).
Found: 0.336

Lookup: Follow-up item: RSFLSYYTSHV [NEFL_Y442_P440L]
Found: 0.692

Lookup: Follow-up item: GSSEDYLHMVH [NIPBL_Y247]
Found: 0.423

* * *

Biological target: Hck (UniProt P08631)
Sequence (P08631 whole entry, looked up): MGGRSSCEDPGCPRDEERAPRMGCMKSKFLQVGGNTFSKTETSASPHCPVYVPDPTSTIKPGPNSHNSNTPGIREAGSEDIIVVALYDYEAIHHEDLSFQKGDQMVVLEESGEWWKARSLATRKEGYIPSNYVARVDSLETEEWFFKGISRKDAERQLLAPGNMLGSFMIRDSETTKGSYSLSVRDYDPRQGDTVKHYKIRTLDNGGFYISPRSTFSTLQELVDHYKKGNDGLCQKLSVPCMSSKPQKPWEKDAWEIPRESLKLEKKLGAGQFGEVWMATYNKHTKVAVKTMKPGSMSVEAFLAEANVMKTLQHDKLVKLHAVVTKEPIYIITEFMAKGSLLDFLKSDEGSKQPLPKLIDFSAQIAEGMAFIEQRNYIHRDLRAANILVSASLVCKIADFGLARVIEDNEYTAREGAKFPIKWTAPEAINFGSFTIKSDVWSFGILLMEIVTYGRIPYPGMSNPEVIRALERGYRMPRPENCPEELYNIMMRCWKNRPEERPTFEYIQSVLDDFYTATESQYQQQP
Assay: phosphorylation enrichment, bacterial display (enrichment ratio); higher = better substrate or ligand; peptides without Tyr show the background
phosphorylation enrichment of 0.6 or higher: rule met. Under 0.6: rule not met.

Some solved cases for reference:
DRLASNLDKVR [KRT10_Y160_Y160N]
rule not met
FSAPNYCYRCG [PPP2CA_Y265]
rule not met
HFGCVYYGTLL [MET_Y1093_H1094Y]
rule met
FDNSVYQKTTE [LDLR_Y828_P826S]
rule met
MGSFNYLGFPR [SPTLC2_Y178_A182P_YF]
rule not met
ESMNIYLQTSP [NAT1_Y208_T207I]
rule met
LKKLEYLNLAL [LRRC6_Y70]
rule not met
PADCRYYAFPQ [GAMT_Y222]
rule met
MFNPMYALFRT [HUWE1_Y4078]
rule met
EKKQTYGSCRK [LACTB_Y473_R469K]
rule not met

Lookup: Does NSNSDYVDILP [SH2D1B_Y127_V130I] have a reported phosphorylation enrichment of at least 0.6?
Found: rule met

Lookup: Follow-up item: HEVHIYEKSGA [ARPC1B_Y35]
Found: rule met

Lookup: Follow-up item: NRLTDYYEPLL [BBS10_Y536]
Found: rule met

Lookup: Follow-up item: TLQSMYGCDVG [HLA-B_Y123]
Found: rule not met

Lookup: Follow-up item: ESDFPYSSSFE [SRPK2_Y427_T426P_YF]
Found: rule not met

Lookup: Follow-up item: NFCPGYNNFFN [USH2A_Y467_R464C_YF]
Found: rule not met

Lookup: Follow-up item: SMAKFYASGIA [ACADSB_Y373_E376G_YF]
Found: rule not met

Lookup: Follow-up item: QSSALYEDHYL [ASS1_Y83_R86H]
Found: rule met

Lookup: Follow-up item: SHSMRYFDTSV [HLA-C_Y31_A35S]
Found: rule not met

* * *

Target: MERTK (UniProt Q12866)
Sequence (Q12866 whole entry, looked up): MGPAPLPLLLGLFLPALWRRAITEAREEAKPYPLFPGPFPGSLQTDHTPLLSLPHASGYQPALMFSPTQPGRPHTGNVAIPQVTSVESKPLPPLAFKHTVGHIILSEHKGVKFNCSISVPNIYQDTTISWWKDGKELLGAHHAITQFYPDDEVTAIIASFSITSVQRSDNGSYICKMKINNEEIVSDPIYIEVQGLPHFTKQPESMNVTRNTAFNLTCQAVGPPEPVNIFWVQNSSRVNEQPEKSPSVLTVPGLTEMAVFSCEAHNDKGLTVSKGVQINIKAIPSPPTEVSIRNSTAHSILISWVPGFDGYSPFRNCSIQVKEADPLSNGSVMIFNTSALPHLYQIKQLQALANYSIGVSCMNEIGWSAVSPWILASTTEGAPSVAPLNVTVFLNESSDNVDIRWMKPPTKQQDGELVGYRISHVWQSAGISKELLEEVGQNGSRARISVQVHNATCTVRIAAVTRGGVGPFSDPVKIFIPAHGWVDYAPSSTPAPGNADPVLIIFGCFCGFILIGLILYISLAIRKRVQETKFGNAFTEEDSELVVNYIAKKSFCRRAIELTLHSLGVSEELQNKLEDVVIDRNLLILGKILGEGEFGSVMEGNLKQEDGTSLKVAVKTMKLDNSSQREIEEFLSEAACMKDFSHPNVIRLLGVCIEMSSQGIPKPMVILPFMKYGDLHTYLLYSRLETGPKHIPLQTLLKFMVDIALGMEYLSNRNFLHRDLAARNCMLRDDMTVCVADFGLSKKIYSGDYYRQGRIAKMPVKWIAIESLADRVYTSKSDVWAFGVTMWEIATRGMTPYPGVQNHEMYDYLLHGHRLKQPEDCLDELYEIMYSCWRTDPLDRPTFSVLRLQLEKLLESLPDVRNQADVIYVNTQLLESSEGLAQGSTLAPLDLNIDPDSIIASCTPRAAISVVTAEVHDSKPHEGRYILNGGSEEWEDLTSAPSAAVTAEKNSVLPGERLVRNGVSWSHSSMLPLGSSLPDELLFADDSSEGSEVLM
Assay: phosphorylation enrichment, bacterial display (enrichment ratio); higher = better substrate or ligand; peptides without Tyr show the background
Observable: phosphorylation enrichment
// return just the number, without any unit appended

IFRAAYFGVFD [SLC25A4_Y191_YF]
0.447
SYMVRYNQPRV [GRIN2D_Y736]
0.45
KFADVYVGICL [B3GALNT1_Y269_E266A]
0.522
LYSNAYLNDLA [ALDH1A1_Y119]
5.82
SVVVPYETPEV [TP53_Y220_P222T]
0.556

Lookup: For LVGTPYWMAPE [PAK5_Y608] , what is its reported phosphorylation enrichment?
Found: 0.856

Lookup: Follow-up item: GAVGHYVLAER [HFE_Y342_M339V]
Found: 0.573

Lookup: Follow-up item: AQMAMYFWEMG [TRPM4_Y577]
Found: 2.67

Lookup: Follow-up item: EACRSYSHVVL [CHST6_Y168]
Found: 0.463

Lookup: Follow-up item: AADGRYEVLFL [SEMA3F_Y478]
Found: 0.749

Lookup: Follow-up item: QNTGNYYDLYG [PTPN11_Y62_D61N]
Found: 13.2

Lookup: Follow-up item: NSNSDYVDILP [SH2D1B_Y127_V130I]
Found: 0.6

Lookup: Follow-up item: QFLMKYVRSAS [ABCD1_Y337_W339R]
Found: 0.476

Lookup: Follow-up item: DERQPYVHMNG [IGF1R_Y1346_A1347V]
Found: 0.428

* * *

Biological target: SHP2-C SH2
Experiment: SH2 binding enrichment of the phosphorylated peptide, bacterial display (enrichment ratio); higher = better substrate or ligand; peptides without Tyr show the background
Observable: SH2 binding enrichment
// return just the number, without any unit appended

Sample answers from the record:
KGSEGYLAAIY [NF1_Y2503_T2507I]
0.606
NQNIGYKLGHR [KCNN3_Y268]
0.782
LITTLYIGFLD [KCNQ1_Y267_G272D]
0.906
HGDSAYHSQRH [ERBB3_Y1132_R1127H]
0.896
LLARLYRGQAL [FGFR4_Y390_G388R]
0.512

Lookup: For LPKEQYLYTKE [AFG3L2_Y614] , what is its reported SH2 binding enrichment?
Found: 0.643

Lookup: Follow-up item: SLEKSYELPDG [ACTA1_Y242]
Found: 0.65

Lookup: Follow-up item: LFDPDYMKVIL [CYP4A22_Y104_YF]
Found: 0.564

Lookup: Follow-up item: EREFKYGAHNF [OAT_Y50_YF]
Found: 0.785

Lookup: Follow-up item: NNPAFYVLEGV [INPPL1_Y987_YF]
Found: 0.693

Lookup: Follow-up item: TLAHKYHGGGG [HBB_Y146_A141T]
Found: 0.67

Lookup: Follow-up item: RRFLFYFSFLL [PTEN_Y177_V175L_YF]
Found: 0.478

Lookup: Follow-up item: KLVQLYDVCTK [BTK_Y461_G462D]
Found: 0.865

Lookup: Follow-up item: VECRVYAEDPF [PCCA_Y401_YF]
Found: 0.426

* * *

Target: SHP2-C SH2
Test: SH2 binding enrichment of the phosphorylated peptide, bacterial display (enrichment ratio); higher = better substrate or ligand; peptides without Tyr show the background
Observable: SH2 binding enrichment
// return just the number, without any unit appended

Sample answers from the record:
PGLSSYGVPGS [FLNB_Y1530_A1534G]
0.611
KGPNVYKKTVN [REV3L_Y1156]
0.606
IEDNKYTAREG [HCK_Y411_E410K]
0.828
MSRFIYSTDFF [NTRK1_Y676_D674Y_YF]
1.05
LARDMDDKEYY [MET_Y1230_Y1230D]
0.716

Lookup: For FAKSVYWENTL [NUP107_Y296_YF] , what is its reported SH2 binding enrichment?
Found: 0.887

Lookup: Follow-up item: RNFVRYVQGLK [VWF_Y1400]
Found: 0.839

Lookup: Follow-up item: NPETCYQKLKK [TK2_Y190_R192K]
Found: 0.814

Lookup: Follow-up item: MKGDYYRSLAE [YWHAG_Y131_Y133S]
Found: 0.625

Lookup: Follow-up item: SVEVPYEPPEV [TP53_Y220_V217E]
Found: 0.797

Lookup: Follow-up item: ALKWGYTVKGI [OAT_Y158_R154L]
Found: 0.845

* * *

Target: Grb2 SH2 (UniProt P62993)
Sequence (P62993 whole entry, looked up): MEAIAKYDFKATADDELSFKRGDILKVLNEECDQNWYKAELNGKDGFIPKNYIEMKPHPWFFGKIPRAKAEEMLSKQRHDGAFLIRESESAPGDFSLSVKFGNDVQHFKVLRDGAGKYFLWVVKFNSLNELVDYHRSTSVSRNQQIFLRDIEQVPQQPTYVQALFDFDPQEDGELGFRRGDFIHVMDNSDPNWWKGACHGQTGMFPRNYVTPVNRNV
Experiment: SH2 binding enrichment of the phosphorylated peptide, bacterial display (enrichment ratio); higher = better substrate or ligand; peptides without Tyr show the background
Observable: SH2 binding enrichment
// return just the number, without any unit appended

Sample answers from the record:
FLLTVYSIFSK [SGCE_Y38]
2.05
INPIIYAFVVE [CCR5_Y297_G301V]
0.912

Lookup: For EEGNPYFSGAR [MCCC2_Y520_S523G_YF] , what is its reported SH2 binding enrichment?
Found: 0.868

Lookup: Follow-up item: RVGNMYVRGLS [ABCG8_Y209]
Found: 0.994

Lookup: Follow-up item: DRLAVYIDRVS [LMNA_Y45_R50S]
Found: 0.807

Lookup: Follow-up item: ENPAKYDDIKK [GAPDH_Y255_K251N]
Found: 0.702

Lookup: Follow-up item: NHYKIYNLYAE [PTEN_Y68_C71Y]
Found: 0.862

Lookup: Follow-up item: LMQAEYWHDPI [PPT1_Y185_V181M]
Found: 0.999

Lookup: Follow-up item: FRPPFYHRDCM [HGD_Y334_N337D_YF]
Found: 1.03

Lookup: Follow-up item: DRLASYPDKVR [KRT14_Y129_L130P]
Found: 0.901

Lookup: Follow-up item: IFLADYRIMEG [ALOX12B_Y318_YF]
Found: 1.16

Lookup: Follow-up item: LEIETDRRLLD [KRT12_Y429_Y429D]
Found: 1

Lookup: Follow-up item: INITIYGKTFH [EFHC1_Y177_R182H]
Found: 1.15

Lookup: Follow-up item: FSAPNYCYRCG [PPP2CA_Y265]
Found: 1.1

Lookup: Follow-up item: TRNVRYLTLDI [AKR1C2_Y305_N300T]
Found: 0.985

Lookup: Follow-up item: EFISENCGEII [EZH2_Y641_Y641N]
Found: 1.05

Lookup: Follow-up item: SSEFHYVGGFF [CTSC_Y347_YF]
Found: 0.688

Attribution: the supplement of paper PMC10065799
